These data points were gathered from paper PMC2838725.

# Measurement Target: C-terminal domain of Stt3p (residues 466-718), N-terminal His6-tagged (Saccharomyces cerevisiae)
# Assay Method Text: NMR titration
Property: pKd
Numbers only, as −log10 of the molar value.

Record request: pKd value, item substrate peptide Asn-Asp-Thr-NH2
2.00
